- TESTED_TARGET: T1, NR2C1 355-603 Hormone_recep (domain begin residue: 355, domain end residue: 603), P13056
- T1 chain: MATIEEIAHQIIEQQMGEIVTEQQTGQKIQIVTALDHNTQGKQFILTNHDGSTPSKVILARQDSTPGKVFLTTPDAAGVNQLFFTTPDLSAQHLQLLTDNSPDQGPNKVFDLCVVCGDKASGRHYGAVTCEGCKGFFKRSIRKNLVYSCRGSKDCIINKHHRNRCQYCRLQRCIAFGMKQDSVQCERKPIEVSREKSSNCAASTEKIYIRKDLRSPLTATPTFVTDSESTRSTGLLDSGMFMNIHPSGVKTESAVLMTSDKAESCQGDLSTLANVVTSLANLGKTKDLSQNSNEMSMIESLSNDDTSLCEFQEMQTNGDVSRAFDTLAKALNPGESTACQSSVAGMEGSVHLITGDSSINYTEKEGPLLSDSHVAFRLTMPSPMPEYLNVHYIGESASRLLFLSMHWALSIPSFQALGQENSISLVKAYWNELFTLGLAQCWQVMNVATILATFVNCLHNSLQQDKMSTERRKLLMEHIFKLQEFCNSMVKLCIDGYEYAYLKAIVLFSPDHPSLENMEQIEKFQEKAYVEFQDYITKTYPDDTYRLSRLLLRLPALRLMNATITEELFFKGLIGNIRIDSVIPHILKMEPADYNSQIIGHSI
- ASSAY_INFO: phage ELISA signal ratio (GST-PRM binding over GST background); higher = stronger binding of peptide-phage to the PRM
TEST_READOUT: phage ELISA signal ratio
Note: the reply should be a number with no unit written.

// known answers, use as guide
>>> df
             binder  readout_number
0  TELPPLPYAWQDYAHW            24.8
1  MPDVPYQWVDLTEWFM              15
2  PYTGIWFGEYLHNFIP            9.25

Form: binder = AAPGSWDYSLLEFHYL ; phage ELISA signal ratio = 3.03

Form: binder = WGPFLSFQYAVDPTQE ; phage ELISA signal ratio = 19.1

Recorded values, source the supplement of paper PMC7724964.
